- Experimental target: Prostaglandin G/H synthase 2 (Homo sapiens)
- Sequence (P35354 whole entry): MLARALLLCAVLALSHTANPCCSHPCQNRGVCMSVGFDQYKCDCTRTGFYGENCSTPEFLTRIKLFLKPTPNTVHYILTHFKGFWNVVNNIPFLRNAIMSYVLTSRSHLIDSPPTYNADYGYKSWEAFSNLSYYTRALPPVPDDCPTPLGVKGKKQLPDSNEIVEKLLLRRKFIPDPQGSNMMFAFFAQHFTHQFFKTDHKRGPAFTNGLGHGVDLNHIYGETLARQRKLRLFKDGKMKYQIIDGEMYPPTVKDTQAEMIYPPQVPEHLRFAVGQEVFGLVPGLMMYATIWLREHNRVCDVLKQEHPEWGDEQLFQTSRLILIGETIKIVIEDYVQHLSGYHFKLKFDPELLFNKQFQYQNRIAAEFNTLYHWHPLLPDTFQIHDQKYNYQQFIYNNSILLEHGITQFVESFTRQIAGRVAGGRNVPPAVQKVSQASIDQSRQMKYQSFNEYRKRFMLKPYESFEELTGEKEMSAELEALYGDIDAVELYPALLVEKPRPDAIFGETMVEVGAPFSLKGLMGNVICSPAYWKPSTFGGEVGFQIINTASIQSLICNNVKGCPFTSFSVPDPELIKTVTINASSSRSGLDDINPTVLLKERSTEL
- Assay method text: Inhibition of human recombinant COX-2 at 1 uM
Value kind: pIC50
// pIC50 is dimensionless: -log10 of concentration (M)

query: I would be grateful if you could share the reported pIC50 for COc1ccc(-c2nc3c(C(N)=O)cccc3[nH]2)cc1 .
result: 4.94

###

- Experimental target: Prostaglandin G/H synthase 1 (Ovis aries)
- Sequence (P05979 whole entry): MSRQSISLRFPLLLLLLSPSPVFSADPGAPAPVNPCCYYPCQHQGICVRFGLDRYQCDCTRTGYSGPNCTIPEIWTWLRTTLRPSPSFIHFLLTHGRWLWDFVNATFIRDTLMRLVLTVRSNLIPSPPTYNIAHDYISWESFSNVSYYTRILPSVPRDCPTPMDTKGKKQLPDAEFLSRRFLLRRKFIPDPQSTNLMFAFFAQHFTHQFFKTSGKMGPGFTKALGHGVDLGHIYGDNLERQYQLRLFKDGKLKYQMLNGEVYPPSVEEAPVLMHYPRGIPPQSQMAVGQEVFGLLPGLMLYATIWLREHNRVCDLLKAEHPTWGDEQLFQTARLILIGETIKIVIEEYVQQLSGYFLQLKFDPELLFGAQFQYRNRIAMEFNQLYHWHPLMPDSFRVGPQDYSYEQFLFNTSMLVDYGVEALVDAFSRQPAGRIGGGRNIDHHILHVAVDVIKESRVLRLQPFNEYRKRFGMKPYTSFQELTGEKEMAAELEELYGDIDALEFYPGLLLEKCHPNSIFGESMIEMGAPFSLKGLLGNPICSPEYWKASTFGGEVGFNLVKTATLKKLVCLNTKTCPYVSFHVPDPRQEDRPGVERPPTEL
- Assay method text: Inhibition of ovine COX-1 by EIA method
Value kind: pIC50
FYI, pIC50 means -log10 of a concentration in mol per litre.

query: Give the measured pIC50 of O=C(NNC(=S)NCc1ccccc1)c1ccc(C2=CN3c4ccccc4NC3S2)nc1 (stereo not drawn) .
result: 7.12

query: Which pIC50 value belongs to CC1=C(c2ccc(C(=O)NNC(=S)Nc3ccccc3)cn2)SC2Nc3ccccc3N12 (stereo not drawn) ?
result: 7.36

query: Which pIC50 is listed for CCCOC(=O)c1nc2c(cnn2-c2ccccc2)c(=O)[nH]1 ?
result: 4.71

query: May I ask what pIC50 has been recorded for O=C1NC(=O)C(=NNc2cccc(-c3nc4ccccc4[nH]3)c2)C(=O)N1 ?
result: 5.56

query: // lookup pIC50 for CSc1nn(-c2ccc(S(C)(=O)=O)cc2)c2ncnc(NCC(=O)/N=C/c3ccco3)c12
result: 3.91

query: Item COc1c2occc2c(OC)c2c(C)c(/C(=N/c3cc(N4CCNCC4)nc(N4CCNCC4)n3)N3CCNCC3)oc12 has what recorded pIC50?
result: 5.38

query: GET /values?readout=pIC50&item= O=C1c2ccccc2C(=O)N1c1nc2cc([N+](=O)[O-])ccc2n1Cc1ccc(-c2ccccc2)cc1
result: 5.01

query: Entry C[C@H](NC(=O)c1nc2c(cnn2-c2ccccc2)c(=O)[nH]1)c1ccccc1 : reported pIC50 = ?
result: 4.55
